Where do these numbers come from? They come from ChEMBL document CHEMBL1141029.

# assay-explanation: Drug level in blood of nude mouse xenografted with […] at 10 mg/mL after 20 hrs
# Format: ADME, tissue-based
# assay-conditions: whole blood, read-out: Drug uptake
measurement-label: concentration at 20 h
State the result as a value with its unit after it.

Data point: O=c1[nH]ccc2nc(-c3ccc(CN4CCC(c5n[nH]c(-c6ccccn6)n5)CC4)cc3)c(-c3ccccc3)cc12 ; concentration at 20 h = 3000 nM

* * *

# tgt: Voltage-gated inwardly rectifying potassium channel KCNH2 (Homo sapiens, UniProt Q12809)
# Sequence (Q12809 whole entry): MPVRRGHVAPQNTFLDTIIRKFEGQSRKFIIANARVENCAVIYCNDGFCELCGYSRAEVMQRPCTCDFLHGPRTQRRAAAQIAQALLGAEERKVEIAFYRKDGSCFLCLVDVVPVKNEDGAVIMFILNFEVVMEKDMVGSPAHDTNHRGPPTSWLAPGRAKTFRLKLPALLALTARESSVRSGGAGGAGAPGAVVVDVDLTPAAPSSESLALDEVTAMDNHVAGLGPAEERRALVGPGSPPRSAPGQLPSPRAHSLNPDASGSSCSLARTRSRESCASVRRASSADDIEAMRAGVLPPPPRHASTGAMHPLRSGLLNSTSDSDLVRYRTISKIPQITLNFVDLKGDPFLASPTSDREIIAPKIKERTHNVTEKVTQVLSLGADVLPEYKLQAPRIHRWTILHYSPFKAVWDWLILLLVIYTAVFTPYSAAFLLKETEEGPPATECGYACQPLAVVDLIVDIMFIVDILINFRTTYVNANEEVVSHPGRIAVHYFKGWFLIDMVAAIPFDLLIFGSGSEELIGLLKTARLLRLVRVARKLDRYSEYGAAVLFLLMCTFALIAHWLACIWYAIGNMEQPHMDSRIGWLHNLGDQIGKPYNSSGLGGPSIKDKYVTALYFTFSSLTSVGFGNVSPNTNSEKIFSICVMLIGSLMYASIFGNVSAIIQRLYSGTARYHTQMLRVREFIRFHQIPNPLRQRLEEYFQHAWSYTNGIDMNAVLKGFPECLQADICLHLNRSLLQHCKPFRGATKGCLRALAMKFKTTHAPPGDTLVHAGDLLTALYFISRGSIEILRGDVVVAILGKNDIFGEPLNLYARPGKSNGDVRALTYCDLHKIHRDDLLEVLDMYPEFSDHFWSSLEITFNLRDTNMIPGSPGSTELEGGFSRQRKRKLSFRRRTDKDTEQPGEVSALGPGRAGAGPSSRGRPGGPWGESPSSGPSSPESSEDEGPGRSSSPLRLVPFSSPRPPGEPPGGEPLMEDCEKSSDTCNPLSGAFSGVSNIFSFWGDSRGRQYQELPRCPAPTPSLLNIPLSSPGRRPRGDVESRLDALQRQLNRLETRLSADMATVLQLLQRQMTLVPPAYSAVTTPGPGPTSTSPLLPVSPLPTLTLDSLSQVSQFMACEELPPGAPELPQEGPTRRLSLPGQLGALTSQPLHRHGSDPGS
# assay-explanation: Inhibition of human ERG expressed in HEK cells by competitive radioligand binding assay
Reported IC50 is given for each of the following compounds.

Below: 3 compounds and their reported IC50.
| smiles-representation | tgt | IC50 |
| --- | --- | --- |
| O=c1[nH]ccc2nc(-c3ccc(CN4CCC(c5n[nH]c(-c6ccccn6)n5)CC4)cc3)c(-c3ccccc3)cc12 | Voltage-gated inwardly rectifying potassium channel KCNH2 (Homo sapiens, UniProt Q12809) | 5.61 µM |
| Oc1nnc2c3cc(-c4ccccc4)c(-c4ccc(CN5CCC(c6n[nH]c(-c7ccccn7)n6)CC5)cc4)nc3ccn12 | Voltage-gated inwardly rectifying potassium channel KCNH2 (Homo sapiens, UniProt Q12809) | 5.31 µM |
| c1ccc(-c2cc3c(ccn4cnnc34)nc2-c2ccc(CN3CCC(c4n[nH]c(-c5ccccn5)n4)CC3)cc2)cc1 | Voltage-gated inwardly rectifying potassium channel KCNH2 (Homo sapiens, UniProt Q12809) | > 10 µM |

Data point: ClCc1nnc2c3cc(-c4ccccc4)c(-c4ccc(CN5CCC(c6n[nH]c(-c7ccccn7)n6)CC5)cc4)nc3ccn12 ; IC50 = 2.02 µM

* * *

# assay-explanation: Drug level in blood of nude mouse xenografted with […] at 70 mg/mL after 20 hrs
# Type: ADME, tissue-based
# assay-conditions: whole blood, read-out: Drug uptake
measurement-label: concentration at 20 h (nM)
Provide the reading as a plain figure in nM.

Data point: c1ccc(-c2cc3c(ccn4cnnc34)nc2-c2ccc(CN3CCC(c4n[nH]c(-c5ccccn5)n4)CC3)cc2)cc1 ; concentration at 20 h = 1700

* * *

Reported IC50 is given for each of the following compounds.
# tgt: RAC-alpha serine/threonine-protein kinase (Homo sapiens)
# Sequence (P31749 whole entry): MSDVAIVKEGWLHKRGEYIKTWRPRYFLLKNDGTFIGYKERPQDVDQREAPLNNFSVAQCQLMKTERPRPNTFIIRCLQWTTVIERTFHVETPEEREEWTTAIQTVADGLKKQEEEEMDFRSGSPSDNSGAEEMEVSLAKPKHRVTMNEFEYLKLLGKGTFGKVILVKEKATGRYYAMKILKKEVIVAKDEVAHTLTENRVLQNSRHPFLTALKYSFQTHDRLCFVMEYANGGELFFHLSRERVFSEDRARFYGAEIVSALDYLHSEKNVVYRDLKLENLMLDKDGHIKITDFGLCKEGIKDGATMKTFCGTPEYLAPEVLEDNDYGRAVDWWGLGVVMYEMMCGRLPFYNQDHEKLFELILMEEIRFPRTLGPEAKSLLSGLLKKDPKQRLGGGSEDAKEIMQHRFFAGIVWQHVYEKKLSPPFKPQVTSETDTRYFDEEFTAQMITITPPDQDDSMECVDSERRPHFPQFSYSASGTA
# assay-explanation: Inhibition of Akt1 by cell based assay
Provide the reading as a plain figure in nM.

Below: 3 compounds and their reported IC50.
| smiles-representation | unit | IC50 |
| --- | --- | --- |
| NC(=O)Nc1nnc2c3cc(-c4ccccc4)c(-c4ccc(CN5CCC(c6n[nH]c(-c7ccccn7)n6)CC5)cc4)nc3ccn12 | nM | 265 |
| ClCc1nnc2c3cc(-c4ccccc4)c(-c4ccc(CN5CCC(c6n[nH]c(-c7ccccn7)n6)CC5)cc4)nc3ccn12 | nM | 113 |
| c1ccc(-c2cc3c(ccn4cnnc34)nc2-c2ccc(CN3CCC(c4n[nH]c(-c5ccccn5)n4)CC3)cc2)cc1 | nM | 5 |

Now, please, on to the next compound.
IC50 value, target or system RAC-alpha serine/threonine-protein kinase (Homo sapiens), for Nc1nnc2c3cc(-c4ccccc4)c(-c4ccc(CN5CCC(c6n[nH]c(-c7ccccn7)n6)CC5)cc4)nc3ccn12 : 18.1

* * *

# tgt: RAC-beta serine/threonine-protein kinase (Homo sapiens)
# Sequence (P31751 whole entry): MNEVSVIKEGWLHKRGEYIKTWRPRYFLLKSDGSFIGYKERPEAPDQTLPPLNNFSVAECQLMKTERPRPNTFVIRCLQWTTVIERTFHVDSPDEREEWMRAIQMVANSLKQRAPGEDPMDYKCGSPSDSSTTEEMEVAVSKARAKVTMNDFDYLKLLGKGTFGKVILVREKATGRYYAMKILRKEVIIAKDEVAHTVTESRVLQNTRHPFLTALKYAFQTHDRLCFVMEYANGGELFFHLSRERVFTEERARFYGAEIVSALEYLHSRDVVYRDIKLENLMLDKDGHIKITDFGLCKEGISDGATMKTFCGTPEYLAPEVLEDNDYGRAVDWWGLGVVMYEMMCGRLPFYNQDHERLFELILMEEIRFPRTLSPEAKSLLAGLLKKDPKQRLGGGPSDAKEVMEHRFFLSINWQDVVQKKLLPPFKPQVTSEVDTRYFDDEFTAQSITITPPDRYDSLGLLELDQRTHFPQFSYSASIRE
# assay-explanation: Inhibition of human cloned Akt2 expressed in Drosophila S2 cells by HTRF assay
# Format: cell-based
Rule: IC50 below 10 nM gives TRUE. Equal to or above 10 nM gives FALSE.

Worked cases, answers included:
| smiles-representation | assigned-label |
| --- | --- |
| NC(=O)Nc1nnc2c3cc(-c4ccccc4)c(-c4ccc(CN5CCC(c6n[nH]c(-c7ccccn7)n6)CC5)cc4)nc3ccn12 | FALSE |
| Cc1nnc2c3cc(-c4ccccc4)c(-c4ccc(CN5CCC(c6n[nH]c(-c7ccccn7)n6)CC5)cc4)nc3ccn12 | FALSE |
| ClCc1nnc2c3cc(-c4ccccc4)c(-c4ccc(CN5CCC(c6n[nH]c(-c7ccccn7)n6)CC5)cc4)nc3ccn12 | FALSE |

## Task Strictly below 10 nM: is that where IC50 of Nc1nnc2c3cc(-c4ccccc4)c(-c4ccc(CN5CCC(n6cnc(-c7ccccn7)c6)CC5)cc4)nc3ccn12 sits?
## Result TRUE

## Task Strictly below 10 nM: is that where IC50 of Nc1nnc2c3cc(-c4ccccc4)c(-c4ccc(CN5CCC(c6n[nH]c(-c7ccccn7)n6)CC5)cc4)nc3ccn12 sits?
## Result TRUE

## Task Strictly below 10 nM: is that where IC50 of Oc1nnc2c3cc(-c4ccccc4)c(-c4ccc(CN5CCC(c6n[nH]c(-c7ccccn7)n6)CC5)cc4)nc3ccn12 sits?
## Result TRUE

## Task Strictly below 10 nM: is that where IC50 of OCCNCc1nnc2c3cc(-c4ccccc4)c(-c4ccc(CN5CCC(c6n[nH]c(-c7ccccn7)n6)CC5)cc4)nc3ccn12 sits?
## Result FALSE

## Task Strictly below 10 nM: is that where IC50 of CN1CCN(Cc2nnc3c4cc(-c5ccccc5)c(-c5ccc(CN6CCC(c7n[nH]c(-c8ccccn8)n7)CC6)cc5)nc4ccn23)CC1 sits?
## Result FALSE

## Task Strictly below 10 nM: is that where IC50 of Sc1nnc2c3cc(-c4ccccc4)c(-c4ccc(CN5CCC(c6n[nH]c(-c7ccccn7)n6)CC5)cc4)nc3ccn12 sits?
## Result FALSE
